System: Neisseria gonorrhoeae strain NCCP11945
protocol_description: Growth inhibition screen of organic acids
Format: cell-based
reported_conditions: strain NCCP11945, in vitro, 1 mM
quantity_measured: Inhibits growth of Neisseria gonorrhoeae

Here is how some compounds turned out for Inhibits growth of Neisseria gonorrhoeae.
compound	Inhibits growth of Neisseria gonorrhoeae
CCCCCCCCCCCCCC(=O)OCC(O)CO (centres unmarked)	Yes
CCCCCCCC/C=C\CCCCCCCC(=O)O	Yes
CCCCCCCC/C=C\CCCCCCCCCCCC(=O)O	Yes
CCCCCCCCCCCC(=O)OCC(O)CO (centres unmarked)	Yes
CCCCCCCC(=O)O	No

Exam item: Value wanted: Inhibits growth of Neisseria gonorrhoeae (Neisseria gonorrhoeae strain NCCP11945) of entry CCCCCC/C=C/CCCCCCCCCC(=O)O [trans-Vaccenic acid 18:1 tΔ11, trans-Vaccenic acid]
Marked response: No

Exam item: Value wanted: Inhibits growth of Neisseria gonorrhoeae (Neisseria gonorrhoeae strain NCCP11945) of entry `CCCCCCCCCC(=O)O`
Marked response: No

Exam item: Value wanted: Inhibits growth of Neisseria gonorrhoeae (Neisseria gonorrhoeae strain NCCP11945) of entry `CCCCCC/C=C\CCCCCCCC(=O)O`
Marked response: Yes
